Reference source: patent US11932658B2

Item-by-item account of pIC50
- Test Target: PAR4 (Homo sapiens, UniProt Q96RI0)
- Construct: expressed in transfected cells; host or cells: HEK293 PAR4 Clone 1.2A (BMS Arctic ID 383940)
- Sequence (Q96RI0 18-385): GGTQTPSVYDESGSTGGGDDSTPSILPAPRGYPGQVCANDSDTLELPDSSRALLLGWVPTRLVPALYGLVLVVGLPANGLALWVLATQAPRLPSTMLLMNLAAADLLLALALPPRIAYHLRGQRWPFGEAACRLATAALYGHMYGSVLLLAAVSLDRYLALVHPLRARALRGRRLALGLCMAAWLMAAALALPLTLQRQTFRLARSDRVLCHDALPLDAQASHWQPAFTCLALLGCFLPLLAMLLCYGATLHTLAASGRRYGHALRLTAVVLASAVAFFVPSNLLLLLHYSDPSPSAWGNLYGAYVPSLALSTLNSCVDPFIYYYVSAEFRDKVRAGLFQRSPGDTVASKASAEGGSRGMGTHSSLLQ
- Procedure Details: PAR4 FLIPR assay (antagonism of agonist peptide-induced calcium mobilization)
- Type: cell-based
In textbook form, pIC50 equals minus log to base ten of the concentration in mol/L.

Example entries and their recorded answers appear below.
>>> measured_result("COc1cnc2c(-c3nc4c(C)cc5c(c4s3)OC[C@H](COC(=O)Nc3cncc(F)c3)O5)cc(C)cc2n1 [Example 42]")
7.30
>>> measured_result("COc1cnc2c(-c3nc4c(Cl)cc5c(c4s3)OC[C@H](COC(=O)Nc3ccc(N(C)C)nc3)O5)cc(C)cc2n1 [Example 65]")
7.80

Report pIC50 for COc1cnc2c(-c3nc4cc(F)c5c(c4s3)C[C@H](COC(=O)Nc3cncc(F)c3)O5)cc(C)cc2n1 [Example 161] tested on PAR4 (Homo sapiens, UniProt Q96RI0). 8.96

Entry to check: COc1cnc2c(-c3nc4ccc5c(c4s3)C[C@@H](CNC(=O)OC3CCOCC3)O5)cc(C)cc2n1 [Example 227] 8.89

For COc1cnc2c(-c3nc4ccc5c(c4s3)OC[C@H](COC(=O)Nc3cnc(C)nc3)O5)cc(C)cc2c1 [Example 268] then? 8.36
